test system: KM12 colon; assay: NCI tumour cell line growth inhibition, 48 h; in the data active = GI50 below about 0.43 µM; inactive = the rest
Labels: 1 (active), 0 (inactive)

compound | experimental system | assigned class
N#Cc1nc(-c2ccccc2)oc1S(=O)(=O)N1CCOCC1 | KM12 colon | 0
C#Cc1ccc(NC(=O)c2ccc(/C=C/C(=O)c3nccn3C)cc2)cc1 | KM12 colon | 1
NC(CSC(c1ccccc1)(c1ccccc1)c1ccc2ccccc2c1)C(=O)O (stereo not given) | KM12 colon | 1
O=Nc1c(O)ccc2ccccc12 | KM12 colon | 0
Cn1c(=O)c2[nH]c(COc3ccc(C(C)(C)C)cc3)nc2n(C)c1=O | KM12 colon | 0

====

test system: CCRF-CEM leukemia; assay: NCI tumour cell line growth inhibition, 48 h
Overview of reported TGI across a group of compounds:
quantity measured: TGI (µM)

compound | experimental system | relation operator | numeric readout
O=[N+]([O-])C1(C2([N+](=O)[O-])CCCC2)CCCC1 | CCRF-CEM leukemia | > | 100
CC(C)(C)/C(O)=C\c1nc2cc(C(F)(F)F)ccc2[nH]c1=O | CCRF-CEM leukemia | = | 81.2
Clc1nc2c(-c3cccs3)ncnc2n1Cc1ccccc1 | CCRF-CEM leukemia | > | 100
c1ccc(-c2nc(N3CCNCC3)c3nc(-c4ccccc4)oc3n2)cc1 | CCRF-CEM leukemia | = | 3.83
Cn1c(=O)n(CC(Br)CBr)c(=O)n(CC(Br)CBr)c1=O (centres undefined) | CCRF-CEM leukemia | = | 66.9
O=C1C2=C(c3ccccc31)C(c1ccccc1Cl)N1C(=O)CSC1=N2 (centres undefined) | CCRF-CEM leukemia | > | 100
CN(O)C(=O)Cc1ccccc1 | CCRF-CEM leukemia | > | 100
Cc1cc(C)nc(NS(=O)(=O)c2ccc(NC(=O)c3cccc4cc5ccccc5nc34)cc2)n1 | CCRF-CEM leukemia | = | 77.5
C[Si](C)(C)/C=C/CN1C(=O)CCC1O (centres undefined) | CCRF-CEM leukemia | > | 100
Nc1cccc(OCc2nc(N)nc(N)c2-c2ccc(Cl)cc2)c1 | CCRF-CEM leukemia | = | 29.2
COC(=O)CCCCC/C(=C\C(=O)C(Cl)(Cl)Cl)OC | CCRF-CEM leukemia | > | 100
CCN(CC)CCNc1ccc(C)c2sc3ccc(O)cc3c(=O)c12 | CCRF-CEM leukemia | = | 1.06
Nc1ncc(Cc2nc3ccccc3s2)s1 | CCRF-CEM leukemia | > | 100
CN(C)c1ccc(/C=C/c2ccnc3ccccc23)cc1 | CCRF-CEM leukemia | > | 100
O=C1c2ccccc2C(=O)N1c1ccc(OCCN2CCCCC2)cc1 | CCRF-CEM leukemia | > | 100
CCCCCCCCCC(=O)CC(=O)c1c(O)cccc1O | CCRF-CEM leukemia | = | 61
N#Cc1nc(-c2ccccc2)oc1S(=O)(=O)N1CCOCC1 | CCRF-CEM leukemia | = | 14.6
C[C@@H]1OC(=O)C[C@H]2CC(=O)N(CCc3cn(S(=O)(=O)C(F)(F)F)c4ccccc34)C[C@@H]21 | CCRF-CEM leukemia | > | 100
O=c1c([Se]c2coc3ccccc3c2=O)coc2ccccc12 | CCRF-CEM leukemia | > | 100
COc1ccc([C@H]2O[C@@H](CO)C[C@]2(O)c2ccc(OC)cc2)cc1 | CCRF-CEM leukemia | > | 100
Cc1ccc2[nH]c3c(C)c4ccncc4c(C)c3c2c1 | CCRF-CEM leukemia | = | 3.74
CCN(CC)CCCNC(=O)Cc1ccccc1Nc1c(Cl)cccc1Cl | CCRF-CEM leukemia | = | 28.2
COc1ccc(C(O)c2cc3c(N)c(C(=O)Nc4cccc(Br)c4)sc3nc2C)cc1 (centres undefined) | CCRF-CEM leukemia | > | 100
CCOC(=O)C12CC1(C(=O)OCC)C1CCC2C1 (centres undefined) | CCRF-CEM leukemia | > | 100

====

tested on: SK-OV-3 ovarian; test: NCI tumour cell line growth inhibition, 48 h
quantity measured: TGI

molecule | result
CC(=O)OC1CCC2(C)C(=CC(C3C=C4CC(OC(C)=O)CCC4(C)C4=C3C3CC5OC6(CCC(C)CO6)C(C)C5C3(C)CC4)C3=C2CCC2(C)C3CC3OC4(CCC(C)CO4)C(C)C32)C1 (stereo not drawn) | 32.7 µM
Cc1ccc(S(=O)(=O)N/N=C2\C=C[C@]3(CC2)C(=O)N(C)c2ccccc23)cc1 | > 100 µM
CC1(C)CC(=O)c2c(nc3ccc4ccccc4c3c2-c2ccc(NC(=O)CCCCC(=O)Nc3ccc(-c4c5c(nc6ccc7ccccc7c46)CC(C)(C)CC5=O)cc3)cc2)C1 | > 100 µM

====

test system: RPMI-8226 leukemia; experiment: NCI tumour cell line growth inhibition, 48 h; in the data active = GI50 below about 0.43 µM; inactive = the rest
Labels: true for active, false for inactive

compound | assigned class
O=[N+]([O-])c1ccc2c(N=Nc3c(O)ccc4ccccc34)c(O)cc(S(=O)(=O)O)c2c1 | false
CC(=O)/C(C)=N/N/C(N)=N\S(=O)(=O)c1cc(C(=O)Nc2ccccc2)c(Cl)cc1SCc1ccccc1 | false
COc1ccc(C(O)c2cc3c(N)c(C(=O)Nc4cccc(Br)c4)sc3nc2C)cc1 (configuration not stated) | true
CC(=O)Oc1c(OC(C)=O)c(-c2ccc(O)c(O)c2)c(O)c(O)c1-c1ccc(O)cc1 | false
O=c1[nH]c(-c2ccc(C(F)(F)F)cc2)nc2c1CSCC2 | false
O=C1/C(=C/c2cccs2)CCC/C1=C\c1cccs1 | false
C[C@@H]1CC[C@@]2(OC1)O[C@H]1C[C@H]3[C@@H]4CC=C5C[C@@H](O[C@@H]6O[C@H](CO)[C@@H](O[C@@H]7O[C@@H](CO)[C@H](O)[C@H]7O)[C@H](O)[C@H]6O[C@@H]6O[C@@H](C)[C@H](O)[C@@H](O)[C@H]6O)CC[C@]5(C)[C@H]4CC[C@]3(C)[C@H]1[C@@H]2C | false

====

Overview of reported GI50 across a group of compounds:
system: HOP-62 NSCLC; test: NCI tumour cell line growth inhibition, 48 h

structure string | GI50
CCSC1=CC(=O)c2ccccc2C1=O | 15.3 µM
Oc1ccccc1-n1c(-c2ccccc2)ccc1-c1ccccc1 | 11.3 µM
COc1ccc2c3c(c(OCCCN(C)C)nc2c1)-c1ccc(Cl)cc1C3=O | 7.71 µM
COc1ccc(/C=C2\N=C3SC=C(N)N3C2=O)cc1 | 2.23 µM
Fc1ccc(-c2ncn(C3CCNCC3)c2-c2ccnc(Oc3cccc(F)c3)n2)cc1 | > 21.8 µM
Oc1c(CN2CCCC2)cc(COCc2ccccc2)c2cccnc12 | 1.65 µM

====

system: A549 NSCLC; test: NCI tumour cell line growth inhibition, 48 h
Overview of reported GI50 across a group of compounds:
quantity measured: GI50

compound | experimental system | quantity measured | result
CCCC[C@@H](COC(=O)N(Cc1cccs1)Cc1cccs1)NC(=O)N[C@@H](CC(=O)OC)c1ccc2c(c1)OCO2 | A549 NSCLC | GI50 | 67.7 µM
O=[N+]([O-])c1ccc2c(N=Nc3c(O)ccc4ccccc34)c(O)cc(S(=O)(=O)O)c2c1 | A549 NSCLC | GI50 | 59.7 µM
N#Cc1nc(-c2ccccc2)oc1S(=O)(=O)N1CCOCC1 | A549 NSCLC | GI50 | 27.9 µM
CC[C@H](C)[C@H](NC(=O)C12C3C4C1C1C2C3C41NC(C)=O)C(=O)N(C)[C@H](C[C@@H](OC(C)=O)c1nc(C(=O)N[C@@H](Cc2ccccc2)C[C@H](C)C(=O)OC)cs1)C(C)C (some centres undefined) | A549 NSCLC | GI50 | 2.82 µM

====

system: NCI/ADR-RES ovarian; test: NCI tumour cell line growth inhibition, 48 h; in the data active means GI50 below about 0.43 µM; inactive means the rest
Labels: Yes for active, No for inactive

compound | assigned class
Cn1c(=O)c2[nH]c(COc3ccc(C(C)(C)C)cc3)nc2n(C)c1=O | No
CC(=O)N1CC(F)(F)c2c(Sc3ncc(N4CCC5(CC4)COC[C@H]5N)nc3N)cccc21 | No
COc1ccc([C@H]2O[C@@H](CO)C[C@]2(O)c2ccc(OC)cc2)cc1 | No
COc1ccc(/C=C\c2cc(OC)c(OC)c(OC)c2)c(NS(=O)(=O)c2ccc(C)cc2)c1O | Yes
Cn1cnc([N+](=O)[O-])c1Sc1ncnc2c1ncn2C1OC(CO)C(O)C1O (configuration not stated) | No
CC(C)(C)CC(C)(C)c1ccc(OCCOCCSC(=N)N)cc1 | No
COc1ccc(C(O)c2cc3c(N)c(C(=O)Nc4cccc(Br)c4)sc3nc2C)cc1 (configuration not stated) | Yes
C#Cc1ccc(NC(=O)c2ccc(/C=C/C(=O)c3nccn3C)cc2)cc1 | No
CN(Cc1cnc2nc(N)nc(N)c2n1)c1ccc(C(=O)NC(CCC(=O)O)C(=O)O)cc1 (configuration not stated) | Yes
O=c1[nH]c(-c2ccc(C(F)(F)F)cc2)nc2c1CSCC2 | No
CC/C=C\CCC/C=C1/C(=O)C=C[C@@H]1C/C=C\CCCC(=O)O | No
CCS/C(Nc1ccccc1)=C(\C#N)C(=O)Nc1ccc(OC)cc1 | No
